TESTED_SYSTEM: Trypsin (Sus scrofa)
Sequence (P00761 9-231): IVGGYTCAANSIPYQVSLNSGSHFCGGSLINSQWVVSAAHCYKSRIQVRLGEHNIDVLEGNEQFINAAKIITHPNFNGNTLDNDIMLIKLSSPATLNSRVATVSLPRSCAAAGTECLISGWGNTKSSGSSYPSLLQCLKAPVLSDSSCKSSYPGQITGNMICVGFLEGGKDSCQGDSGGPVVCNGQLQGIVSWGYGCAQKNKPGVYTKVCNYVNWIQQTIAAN
ENDPOINT_NAME: Ki

Data request: Item under review: CN[C@H](Cc1ccccc1)C(=O)N1CCC[C@H]1C(=O)NC(Cc1c[nH]c2ccccc12)C(=O)C(F)(F)C(F)(F)F.O=C(O)C(F)(F)F (stereo partly drawn) [TFA.HNMe-D-Phe-L-Pro-D,L-Trp-CF2 CF3] . Reported Ki?
Data returned: ~100 µM
